The measured values listed here are drawn from PubChem BioAssay AID2060622.

test system: 242566-281-R-J2-PDC complex spheroid viability; test: Anticancer human tumor 242566-281-R-J2-PDC patient-derived pancreatic carcinoma cell line growth inhibition [CLK]; settings: curve of first compound; second compound 0.316 µM;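 further: spheroids exposed to compounds for 7 days before readout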
pIC50: −log10 of the molar value.
Kind request: treat 6 as inclusive, so pIC50 at 6 or higher is class 1, anything lower is class 0.

>>> assigned_class("CC(Nc1ccc2c(c1)OCCn1cc(N3C(=O)OCC3C(F)F)nc1-2)C(N)=O (stereo unspecified) + CN1CCN(c2cc(C(=O)Nc3cc4cc(-c5cnn(C)c5)ccc4cn3)ccn2)CC1")
"class 1"
>>> assigned_class("Cn1ncnc1[C@H]1c2n[nH]c(=O)c3cc(F)cc(c23)N[C@@H]1c1ccc(F)cc1 + CN1CCN(c2cc(C(=O)Nc3cc4cc(-c5cnn(C)c5)ccc4cn3)ccn2)CC1")
"class 1"
>>> assigned_class("COc1c(OCCCN2CCOCC2)ccc2c3n(c(=NC(=O)c4cnc(N)nc4)nc12)CCN3 + CN1CCN(c2cc(C(=O)Nc3cc4cc(-c5cnn(C)c5)ccc4cn3)ccn2)CC1")
"class 1"
>>> assigned_class("Nc1ccccc1NC(=O)c1ccc(CNC(=O)OCc2cccnc2)cc1 + CN1CCN(c2cc(C(=O)Nc3cc4cc(-c5cnn(C)c5)ccc4cn3)ccn2)CC1")
"class 1"
>>> assigned_class("CC(=O)O[C@H]1C(=O)[C@@]2(C)[C@H]([C@H](OC(=O)c3ccccc3)[C@]3(O)C[C@H](OC(=O)[C@H](O)[C@@H](NC(=O)c4ccccc4)c4ccccc4)C(C)=C1C3(C)C)[C@]1(OC(C)=O)CO[C@@H]1C[C@@H]2O + CNC(=O)c1ccc(Nc2nc(OC3CCCC3)c3c(-c4ccc5nc(C)oc5c4)c[nH]c3n2)c(OC)c1")
"class 0"
>>> assigned_class("CC(C)CC(NC(=O)C(Cc1ccccc1)NC(=O)c1cnccn1)B(O)O (stereo unspecified) + CN1CCN(c2cc(C(=O)Nc3cc4cc(-c5cnn(C)c5)ccc4cn3)ccn2)CC1")
"class 1"
>>> assigned_class("COC1C=CCC(C)C(C)S(=O)(=O)NC(=O)c2ccc3c(c2)N(CC2CCC21)CC1(CCCc2cc(Cl)ccc21)CO3 (stereo unspecified) + CNC(=O)c1ccc(Nc2nc(OC3CCCC3)c3c(-c4ccc5nc(C)oc5c4)c[nH]c3n2)c(OC)c1")
"class 1"
>>> assigned_class("CCCS(=O)(=O)Nc1ccc(F)c(C(=O)c2c[nH]c3ncc(-c4ccc(Cl)cc4)cc23)c1F + CNC(=O)c1ccc(Nc2nc(OC3CCCC3)c3c(-c4ccc5nc(C)oc5c4)c[nH]c3n2)c(OC)c1")
"class 0"
>>> assigned_class("NC(=O)C(=Cn1cnc(-c2cc(C(F)(F)F)cc(C(F)(F)F)c2)n1)c1cncnc1 + CNC(=O)c1ccc(Nc2nc(OC3CCCC3)c3c(-c4ccc5nc(C)oc5c4)c[nH]c3n2)c(OC)c1")
"class 0"
>>> assigned_class("COc1c(OCCCN2CCOCC2)ccc2c3n(c(=NC(=O)c4cnc(N)nc4)nc12)CCN3 + CNC(=O)c1ccc(Nc2nc(OC3CCCC3)c3c(-c4ccc5nc(C)oc5c4)c[nH]c3n2)c(OC)c1")
"class 1"
>>> assigned_class("Nc1ccn(C2OC(CO)C(O)C2(F)F)c(=O)n1 (stereo unspecified) + CNC(=O)c1ccc(Nc2nc(OC3CCCC3)c3c(-c4ccc5nc(C)oc5c4)c[nH]c3n2)c(OC)c1")
"class 1"
>>> assigned_class("CCCS(=O)(=O)Nc1ccc(F)c(C(=O)c2c[nH]c3ncc(-c4ccc(Cl)cc4)cc23)c1F + CN1CCN(c2cc(C(=O)Nc3cc4cc(-c5cnn(C)c5)ccc4cn3)ccn2)CC1")
"class 1"
>>> assigned_class("COc1ccc([C@@H](O)c2cc(-c3ncnc4cc(N5CCOCC5)ccc34)c(F)cc2Cl)nn1 + CN1CCN(c2cc(C(=O)Nc3cc4cc(-c5cnn(C)c5)ccc4cn3)ccn2)CC1")
"class 1"
>>> assigned_class("CC(CO)NC(=O)c1cc(-c2ccc(Cl)cc2)nn(-c2cnn(C)c2)c1=O (stereo unspecified) + CNC(=O)c1ccc(Nc2nc(OC3CCCC3)c3c(-c4ccc5nc(C)oc5c4)c[nH]c3n2)c(OC)c1")
"class 0"
>>> assigned_class("C#Cc1c(F)ccc2cc(O)cc(-c3ncc4c(N5CC6CCC(C5)N6)nc(OCC56CCCN5CC(F)C6)nc4c3F)c12 (stereo unspecified) + CNC(=O)c1ccc(Nc2nc(OC3CCCC3)c3c(-c4ccc5nc(C)oc5c4)c[nH]c3n2)c(OC)c1")
"class 1"
>>> assigned_class("CC(C)CC(NC(=O)C(Cc1ccccc1)NC(=O)c1cnccn1)B(O)O (stereo unspecified) + CNC(=O)c1ccc(Nc2nc(OC3CCCC3)c3c(-c4ccc5nc(C)oc5c4)c[nH]c3n2)c(OC)c1")
"class 1"
>>> assigned_class("CC1COCCN1c1cc(C2(S(C)(=N)=O)CC2)nc(-c2ccnc3[nH]ccc23)n1 (stereo unspecified) + CNC(=O)c1ccc(Nc2nc(OC3CCCC3)c3c(-c4ccc5nc(C)oc5c4)c[nH]c3n2)c(OC)c1")
"class 0"
>>> assigned_class("Nc1ccn(C2OC(CO)C(O)C2(F)F)c(=O)n1 (stereo unspecified) + CN1CCN(c2cc(C(=O)Nc3cc4cc(-c5cnn(C)c5)ccc4cn3)ccn2)CC1")
"class 1"
>>> assigned_class("C=C(F)C(=O)N1CCN(c2nc(OCC3CCCN3C)nc3c2CCN(c2cccc4cccc(Cl)c24)C3)CC1CC#N (stereo unspecified) + CNC(=O)c1ccc(Nc2nc(OC3CCCC3)c3c(-c4ccc5nc(C)oc5c4)c[nH]c3n2)c(OC)c1")
"class 0"
>>> assigned_class("O=c1[nH]cc(F)c(=O)[nH]1 + CN1CCN(c2cc(C(=O)Nc3cc4cc(-c5cnn(C)c5)ccc4cn3)ccn2)CC1")
"class 1"
